The reported measurements were obtained from ChEMBL document CHEMBL1145338.

target-or-system: Tyrosine-protein kinase JAK2 (Homo sapiens, UniProt O60674)
Sequence (O60674 whole entry): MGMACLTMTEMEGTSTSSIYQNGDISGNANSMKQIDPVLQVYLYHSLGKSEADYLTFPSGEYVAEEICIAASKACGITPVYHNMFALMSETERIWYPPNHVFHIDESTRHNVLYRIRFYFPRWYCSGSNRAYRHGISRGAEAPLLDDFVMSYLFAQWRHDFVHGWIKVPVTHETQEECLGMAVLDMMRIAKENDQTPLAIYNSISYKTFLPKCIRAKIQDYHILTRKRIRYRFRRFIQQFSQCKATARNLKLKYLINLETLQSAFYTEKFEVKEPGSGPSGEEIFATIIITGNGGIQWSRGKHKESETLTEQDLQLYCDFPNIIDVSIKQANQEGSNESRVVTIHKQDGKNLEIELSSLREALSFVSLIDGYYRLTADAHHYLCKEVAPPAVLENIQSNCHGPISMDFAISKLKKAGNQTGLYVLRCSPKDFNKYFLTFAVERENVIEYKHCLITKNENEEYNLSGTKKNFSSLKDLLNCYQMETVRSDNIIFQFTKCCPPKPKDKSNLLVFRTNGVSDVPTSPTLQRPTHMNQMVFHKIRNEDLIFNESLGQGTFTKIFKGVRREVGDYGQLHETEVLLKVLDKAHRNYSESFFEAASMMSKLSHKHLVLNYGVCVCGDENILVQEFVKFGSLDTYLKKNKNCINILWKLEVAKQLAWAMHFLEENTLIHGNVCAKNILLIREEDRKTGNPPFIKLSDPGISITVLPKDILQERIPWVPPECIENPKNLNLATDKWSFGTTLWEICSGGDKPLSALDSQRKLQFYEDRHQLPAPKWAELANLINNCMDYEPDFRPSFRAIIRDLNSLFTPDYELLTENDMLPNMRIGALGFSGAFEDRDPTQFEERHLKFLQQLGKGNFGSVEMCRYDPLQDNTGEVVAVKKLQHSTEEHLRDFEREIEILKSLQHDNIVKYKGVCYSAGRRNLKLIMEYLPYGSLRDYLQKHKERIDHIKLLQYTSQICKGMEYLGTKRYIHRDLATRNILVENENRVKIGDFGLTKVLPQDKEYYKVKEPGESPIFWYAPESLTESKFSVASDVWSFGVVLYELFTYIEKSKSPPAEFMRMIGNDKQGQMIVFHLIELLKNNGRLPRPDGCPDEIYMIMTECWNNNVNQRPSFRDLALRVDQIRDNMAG
endpoint-label: IC50
For clarity, give the value followed by its unit.

Data request, read-out IC50, for `COc1ccc(N(C(=O)Oc2c(C)cccc2C)c2ccnc(Nc3cc(OC)c(OCCCN4CCN(C)CC4)c(OC)c3)n2)c(OC)c1`
240 nM

---

Test system: T-cell
assay-method-text: Inhibition of anti-CD3/CD28-induced IL2 secretion in human T cells
Assay type: functional, cell-based
Reported IC50 by item:
Dear colleague, please return just the value in µM, with no unit written.

Notebook: pull reported IC50 for T-cell, entry `COc1ccc(N(C(=O)Oc2c(C)cccc2C)c2ccnc(Nc3ccc(N4CCN(C)CC4)c(OC)c3)n2)c(OC)c1`
0.14

More entries:
Notebook: pull reported IC50 for T-cell, entry `COc1ccc(N(C(=O)Oc2c(C)cccc2C)c2ccnc(Nc3ccc(N4CCN(C)CC4)cc3)n2)c(OC)c1`
1.9

Notebook: pull reported IC50 for T-cell, entry `COc1ccc(N(C(=O)Oc2c(C)cccc2C)c2ccnc(Nc3ccc(OCCN(C)C)cc3)n2)c(OC)c1`
0.27

Notebook: pull reported IC50 for T-cell, entry `COc1ccc(N(C(=O)Oc2c(C)cccc2C)c2ccnc(Nc3cc(OC)c(OCCN4CCN(C)CC4)c(OC)c3)n2)c(OC)c1`
0.29

Notebook: pull reported IC50 for T-cell, entry `COc1ccc(N(C(=O)Oc2c(C)cccc2C)c2ccnc(Nc3ccc(OCCCN4CCN(C)CC4)c(F)c3)n2)c(OC)c1`
0.51

Notebook: pull reported IC50 for T-cell, entry `COc1ccc(N(C(=O)Oc2c(C)cccc2C)c2ccnc(Nc3cc(OC)c(OCCN4CCOCC4)c(OC)c3)n2)c(OC)c1`
0.41

---

target-or-system: Mitogen-activated protein kinase 14 (Homo sapiens, UniProt Q16539)
Sequence (Q16539 whole entry): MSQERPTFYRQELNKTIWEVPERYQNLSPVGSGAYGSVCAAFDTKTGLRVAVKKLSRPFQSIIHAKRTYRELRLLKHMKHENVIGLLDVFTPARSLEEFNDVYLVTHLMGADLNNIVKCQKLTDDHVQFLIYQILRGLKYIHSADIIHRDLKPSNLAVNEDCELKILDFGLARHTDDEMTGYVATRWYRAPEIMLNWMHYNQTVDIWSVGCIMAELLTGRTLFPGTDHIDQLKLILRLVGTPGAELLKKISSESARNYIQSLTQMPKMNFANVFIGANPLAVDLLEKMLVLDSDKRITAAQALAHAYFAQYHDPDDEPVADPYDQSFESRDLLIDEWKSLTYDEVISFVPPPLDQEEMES
assay-method-text: Inhibition of p38alpha
endpoint-label: IC50
For clarity, give the value followed by its unit.

Here's what some known entries look like.
Data request, read-out IC50, for `Cc1cccc(C)c1OC(=O)N(c1ccnc(Nc2ccc(N3CCN(C)CC3)cc2)n1)c1ccc(F)cc1OC(C)C`
1200 nM

Data request, read-out IC50, for `COc1ccc(N(C(=O)Oc2c(C)cccc2C)c2ccnc(Nc3cc(OC)c(OCCN4CCOCC4)c(OC)c3)n2)c(OC)c1`
1200 nM

Data request, read-out IC50, for `COc1ccc(N(C(=O)Oc2c(C)cccc2C)c2ccnc(Nc3ccc(N4CCN(C)CC4)c(OC)c3)n2)c(OC)c1`
440 nM

Data request, read-out IC50, for `COc1ccc(N(C(=O)Oc2c(C)cccc2C)c2ccnc(Nc3ccc(OCCN(C)C)cc3)n2)c(OC)c1`
2100 nM

Data request, read-out IC50, for `Cc1cccc(C)c1OC(=O)N(c1ccc2ccccc2c1)c1ccnc(Nc2ccc(N3CCN(C)CC3)cc2)n1`
740 nM

Data request, read-out IC50, for `COc1ccccc1N(C(=O)Oc1c(C)cccc1C)c1ccnc(Nc2ccc(N3CCN(C)CC3)cc2)n1`
420 nM

Okay, now this compound:
Data request, read-out IC50, for `COc1ccc(N(C(=O)Oc2c(C)cccc2C)c2ccnc(Nc3ccc(N4CCN(C)CC4)cc3)n2)c(OC)c1`
1300 nM

---

target-or-system: Tyrosine-protein kinase JAK3 (Homo sapiens, UniProt P52333)
Sequence (P52333 whole entry): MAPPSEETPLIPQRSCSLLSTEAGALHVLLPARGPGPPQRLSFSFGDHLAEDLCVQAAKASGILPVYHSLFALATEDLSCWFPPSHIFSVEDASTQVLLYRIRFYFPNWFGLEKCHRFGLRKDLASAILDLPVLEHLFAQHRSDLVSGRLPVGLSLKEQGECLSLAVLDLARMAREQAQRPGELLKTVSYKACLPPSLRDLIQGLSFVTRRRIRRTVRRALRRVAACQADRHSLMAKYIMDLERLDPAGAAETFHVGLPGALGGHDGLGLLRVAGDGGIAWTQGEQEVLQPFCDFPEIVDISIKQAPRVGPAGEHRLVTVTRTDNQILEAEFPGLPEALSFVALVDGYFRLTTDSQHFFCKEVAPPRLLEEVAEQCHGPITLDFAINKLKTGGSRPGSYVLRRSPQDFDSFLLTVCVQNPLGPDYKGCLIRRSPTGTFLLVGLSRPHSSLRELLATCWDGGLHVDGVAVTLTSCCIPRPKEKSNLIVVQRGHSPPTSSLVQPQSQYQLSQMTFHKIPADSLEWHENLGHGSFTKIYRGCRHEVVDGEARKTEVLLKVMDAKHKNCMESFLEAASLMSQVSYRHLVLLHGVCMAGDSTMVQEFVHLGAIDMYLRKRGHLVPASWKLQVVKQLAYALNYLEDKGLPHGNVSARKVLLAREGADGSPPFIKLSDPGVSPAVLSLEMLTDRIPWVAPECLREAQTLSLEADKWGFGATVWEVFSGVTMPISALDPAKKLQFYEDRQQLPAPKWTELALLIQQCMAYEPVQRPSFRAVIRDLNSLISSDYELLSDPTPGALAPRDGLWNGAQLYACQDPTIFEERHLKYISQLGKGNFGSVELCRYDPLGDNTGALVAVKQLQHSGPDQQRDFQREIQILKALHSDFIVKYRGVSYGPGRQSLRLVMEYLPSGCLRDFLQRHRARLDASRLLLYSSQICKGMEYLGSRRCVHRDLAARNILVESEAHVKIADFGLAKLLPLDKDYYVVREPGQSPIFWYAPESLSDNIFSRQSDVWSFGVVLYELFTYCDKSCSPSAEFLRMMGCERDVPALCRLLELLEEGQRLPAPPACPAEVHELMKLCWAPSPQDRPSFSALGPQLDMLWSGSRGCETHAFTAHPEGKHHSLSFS
endpoint-label: pIC50
Worth noting: pIC50 values are minus log10 of concentrations stated in mol/L.

Data request, read-out pIC50, for `COc1ccc(N(C(=O)Oc2c(C)cccc2C)c2ccnc(Nc3cc(OC)c(OCCCN4CCN(C)CC4)c(OC)c3)n2)c(OC)c1`
5.92
